Assay: Test for solubility in solvent
Type: physicochemical
Conditions: methanol, room temperature
Reported Property: Solubility

## Input Which Solubility reading was recorded for the molecule "CCCN1C(=CC=CC=CC2=[N+](CCC)c3cc(C)c(OC)cc3C2(C)C)C(C)(C)c2cc(OC)c(C)cc21" ?
## Output at least 30 g/1

## Input Which Solubility reading was recorded for the molecule CCOc1ccc2c(c1)C(C)(C)C(=CC=CC=CC=CC1=[N+](C)c3ccc(OCC)cc3C1(C)C)N2C [Compound A, reference compound] ?
## Output up to 10 g/1

## Input Which Solubility reading was recorded for the molecule "COCN1C(=CC=CC=CC2=[N+](COC)c3cc(OC)c(OC)cc3C2(C)C)C(C)(C)c2cc(OC)c(OC)cc21" ?
## Output at least 30 g/1

## Input Which Solubility reading was recorded for the molecule "COCCN1C(=CC=CC=CC2=[N+](CCOC)c3c(OC)cc(OC)cc3C2(C)C)C(C)(C)c2cc(OC)cc(OC)c21" ?
## Output at least 30 g/1

## Input Which Solubility reading was recorded for the molecule CCOc1ccc2c(c1)C(C)(C)C(=CC=CC=CC1=[N+](C)c3ccc(OCC)cc3C1(C)C)N2C [Compound B, reference compound] ?
## Output up to 10 g/1

## Input Which Solubility reading was recorded for the molecule "CCN1C(=CC=CC=CC2=[N+](CC)c3c(OC)cc(OC)cc3C2(C)C)C(C)(C)c2cc(OC)cc(OC)c21" ?
## Output 30 g/1

With those in mind, consider the next molecule.
## Input Which Solubility reading was recorded for the molecule "CCCCN1C(=CC=CC=CC2=[N+](CCCC)c3cc(OC)c(OC)cc3C2(C)C)C(C)(C)c2cc(OC)c(OC)cc21" ?
## Output at least 30 g/1

###

Assay: Absorption maximum (λmax) and molar absorptivity (ε) in solution
Format: physicochemical
Details: diacetone alcohol
Reported Property: ε (cm⁻¹)

## Input Which ε reading was recorded for the molecule "COCN1C(=CC=CC=CC2=[N+](COC)c3cc(OC)c(OC)cc3C2(C)C)C(C)(C)c2cc(OC)c(OC)cc21" ?
## Output 160000

## Input Which ε reading was recorded for the molecule "COCCN1C(=CC=CC=CC2=[N+](CCOC)c3c(C)cc(OC)cc3C2(C)C)C(C)(C)c2cc(OC)cc(C)c21" ?
## Output 185000

## Input Which ε reading was recorded for the molecule "CCCN1C(=CC=CC=CC2=[N+](CCC)c3cc(C)c(OC)cc3C2(C)C)C(C)(C)c2cc(OC)c(C)cc21" ?
## Output 174000

## Input Which ε reading was recorded for the molecule "COc1cc(OC)c2c(c1)C(C)(C)C(=CC=CC=CC1=[N+](CCOC(C)=O)c3c(OC)cc(OC)cc3C1(C)C)N2CCOC(C)=O" ?
## Output 175000

## Input Which ε reading was recorded for the molecule "CCc1cc(OC)cc2c1N(CC)C(=CC=CC=CC1=[N+](CC)c3c(CC)cc(OC)cc3C1(C)C)C2(C)C" ?
## Output 182000

## Input Which ε reading was recorded for the molecule "COc1cc(C(C)C)c2c(c1)C(C)(C)C(=CC=CC=CC1=[N+](C)c3c(C(C)C)cc(OC)cc3C1(C)C)N2C" ?
## Output 162000

## Input Which ε reading was recorded for the molecule "CCCCN1C(=CC=CC=CC2=[N+](CCCC)c3cc(OC)c(OC)cc3C2(C)C)C(C)(C)c2cc(OC)c(OC)cc21" ?
## Output 162000

## Input Which ε reading was recorded for the molecule "COCCN1C(=CC=CC=CC2=[N+](CCOC)c3c(OC)cc(OC)cc3C2(C)C)C(C)(C)c2cc(OC)cc(OC)c21" ?
## Output 180000

## Input Which ε reading was recorded for the molecule "COc1cc(C)c2c(c1)C(C)(C)C(=CC=CC=CC1=[N+](CCO)c3c(C)cc(OC)cc3C1(C)C)N2CCO" ?
## Output 184000
